The reported measurements were obtained from patent US20030148956A1.

target: corticotropin releasing factor 1 receptor; experiment: cell-based or functional assay
Ends that are not written are not given here.
# CRF1R EC50 values compiled below
experimental readout: CRF1R EC50 (nM)

>  <binder>
ZGPPISIDVPFQLLRKMIEIEKQEKEKQQAANNRLLLDTI (C-terminal amide) [SEQ ID NO 256]

>  <experimental readout>
CRF1R EC50

>  <unit of measure>
nM

>  <measured result>
254

$$$$
>  <binder>
ZGPPISIDLPFYLLRKMIEIEKQEKEKQQAANNALLLATI (C-terminal amide) [SEQ ID NO 231]

>  <experimental readout>
CRF1R EC50

>  <unit of measure>
nM

>  <measured result>
94

$$$$
>  <binder>
ZGPPISIDLPYFLLRKMIEIEKQEKEKQQAANNRLLLDTI (C-terminal amide) [SEQ ID NO 220]

>  <experimental readout>
CRF1R EC50

>  <unit of measure>
nM

>  <measured result>
63.6

$$$$
>  <binder>
ZGPPISIDVPFQLLRKVIEIEKQEKEKQQAANNARLLDTI (C-terminal amide) [SEQ ID NO 382]

>  <experimental readout>
CRF1R EC50

>  <unit of measure>
nM

>  <measured result>
1000

$$$$
>  <binder>
IVLSLDVPIGLLQKMIEIEKQEKEKQQATTNARILARV-NH2 [SEQ ID NO 322]

>  <experimental readout>
CRF1R EC50

>  <unit of measure>
nM

>  <measured result>
1000

$$$$
